Test system: SEM cells
Assay Remarks: cell viability relative to DMSO control; higher = less cytotoxic
Condition Description: RPMI 5 mM glucose + 10% dialyzed FBS; 48 h; 15.4 µM
Parameter: cell viability (%)

> print(dat)
                                    molecule       parameter  quantitative.readout
 1            CCCCCCCCc1ccc(CCC(N)(CO)CO)cc1  cell viability                   124
 2  COc1ccc(Nc2cc(-c3cnc(N)nc3)nc(N3CCOCC3)n2)cn1  cell viability                  57.4
 3     O=C1NC(=O)/C(=C/c2cccc(C(F)(F)F)c2)S1  cell viability                   102
 4                         NC(=O)c1cccc(N)c1  cell viability                   117
 5  COc1ccc2c(c1OC)CN1CCc3cc4c(cc3C1C2)OCO4 (stereo not given)  cell viability                  8.19
 6    COC(=O)[C@@H](N)CCCNC(=N)N[N+](=O)[O-]  cell viability                   107
 7  COC1=CC=C(C=C1)C2CC(=N/N2C3=CC=C(C=C3)[S+](N)([O-])=O)\C4=CC=CC=C4 (stereo not given)  cell viability                  2.63
 8  O=[N+]([O-])c1cnc(Sc2nnc(O)n2-c2ccc3c(c2)OCCO3)s1  cell viability                  2.08
 9  C[N+](C)([O-])CCNc1ccc(NCC[N+](C)(C)[O-])c2c1C(=O)c1c(O)ccc(O)c1C2=O  cell viability                  18.8
10        CN(C)CCN(Cc1ccc(Cl)cc1)c1ccccn1.Cl  cell viability                   106
11  N[C@@H](CC(=O)N1CCn2c(nnc2C(F)(F)F)C1)Cc1cc(F)c(F)cc1F  cell viability                  40.1
12  C=CCn1c(=O)c2cnc(Nc3ccc(N4CCN(C)CC4)cc3)nc2n1-c1cccc(C(C)(C)O)n1  cell viability                  19.3
13  Cc1ccc(-c2ncn(-c3ccc(Nc4nccc(-c5cccc(N6CCOCC6)c5)n4)cc3)n2)cn1  cell viability                  3.85
14  CC1=C(CC/C(C)=C/CCC2=CCC(C3=CC(=O)OC3O)OC2O)C(C)(C)CCC1 (stereo not given)  cell viability                   140
15                  Cc1cc(Cl)ccc1OCCCC(=O)NO  cell viability                  26.7
16  C[S+]([O-])c1ccc(-c2nc(-c3ccc(F)cc3)c(-c3ccncc3)[nH]2)cc1 (stereo not given)  cell viability                  3.71
17  CC(C)(C)NC(=O)[C@H]1CC[C@H]2[C@@H]3CC[C@H]4NC(=O)\C=C/[C@]4(C)[C@H]3CC[C@]12C  cell viability                  99.2
18  COc1cc(-c2nn(C3CCC(N4CCN(C(C)=O)CC4)CC3)c3ncnc(N)c23)ccc1NC(=O)c1cc2ccccc2n1C (stereo not given)  cell viability                   113
19  OC1=CC=C(C=C1)\C2=C\C(=O)C3=C(O2)C=C(O)C=C3O  cell viability                    98
20  CO[C@@H]1C(N(C)C(=O)c2ccccc2)C[C@H]2O[C@]1(C)n1c3ccccc3c3c4c(c5c6ccccc6n2c5c31)C(=O)NC4=O (stereo not given in full)  cell viability                  13.2

---

Test system: NOMO1
Assay Remarks: cell viability relative to DMSO control; higher = less cytotoxic
Condition Description: RPMI 5 mM glucose + 10% FBS; 48 h; 15.4 µM
Parameter: cell viability (%)

> print(dat)
                                smiles.data  study.system       parameter  measurement.unit  quantitative.readout
1  CN(C)c1ccc2cc(C(=O)N[C@@H](CCCNC(=N)CCl)C(=O)NCc3ccccc3)ccc2c1         NOMO1  cell viability                 %                  85.4
2  COC1=CC2=C(C=C1OC)[C@H]3[C@@H](CO2)OC4=C(C=CC5=C4\C=C/C(C)(C)O5)C3=O         NOMO1  cell viability                 %                  76.5
3  C#C[C@]1(O)CC[C@H]2[C@@H]3CCc4cc(OC)ccc4[C@H]3CC[C@@]21C         NOMO1  cell viability                 %                   104
4        CN(C)CCN(Cc1ccc(Cl)cc1)c1ccccn1.Cl         NOMO1  cell viability                 %                    80
5    COC(=O)[C@@H](N)CCCNC(=N)N[N+](=O)[O-]         NOMO1  cell viability                 %                  93.3
6  Cc1cn(CCN2CCN(c3ccccc3-c3cc(C#N)cc(C(=O)NCCCN4CCCC4)c3)CC2)c2ccccc12         NOMO1  cell viability                 %                  38.4
7       CCN(C)C(=O)Oc1cccc([C@H](C)N(C)C)c1         NOMO1  cell viability                 %                   112
8  CCOC1=CC(=CC=C1C/2=N/[C@@](C)(C3=CC=C(Cl)C=C3)[C@](C)(N2C(=O)N4CCN(CC4)CC(=O)N5CCOCC5)C6=CC=C(Cl)C=C6)C(C)(C)C         NOMO1  cell viability                 %                  91.6

---

System: P12-Ichikawa
Assay Remarks: cell viability relative to DMSO control; higher = less cytotoxic
Condition Description: RPMI 5 mM glucose + 10% FBS; 48 h; 15.4 µM
Parameter: cell viability (%)

Compound	Measurement Unit	Quantitative Readout
COc1cccc2c1C(=O)c1c(O)c3c(c(O)c1C2=O)C[C@@](O)(C(C)=O)C[C@@H]3O[C@H]1C[C@H](N)[C@H](O)[C@H](C)O1	%	7.04
COc1cc2ncnc(Nc3cccc(Br)c3)c2cc1OC	%	112
CC(=O)O[C@@]12CO[C@@H]1C[C@H](O)[C@]3(C)[C@@H]2[C@H](OC(=O)C4=CC=CC=C4)[C@]5(O)C[C@H](OC(=O)C(O)[C@@H](NC(=O)OC(C)(C)C)C6=CC=CC=C6)C(=C(/[C@@H](O)C3=O)C5(C)C)/C (some centres not stated)	%	6.81
CC[C@@]1(O)C[C@H](O[C@H]2C[C@H](N(C)C)[C@H](O[C@H]3C[C@H](O)[C@H](O[C@H]4CCC(=O)[C@H](C)O4)[C@H](C)O3)[C@H](C)O2)c2c(cc3c(c2O)C(=O)c2c(O)cccc2C3=O)[C@H]1C(=O)OC	%	63.9
CN(C)c1ccc(Nc2nc(N)n(C(=O)c3c(F)cccc3F)n2)cc1	%	28.8
CC1(C)CC(O)CC(C)(C)N1[O]	%	119
C[C@@H]1CC[C@@]2(OC1)OC1CC3C4CC=C5CC(O)CCC5(C)C4CCC3(C)C1[C@@H]2C (some centres not stated)	%	86.8

---

Tested on: NOMO1
Assay Remarks: cell viability relative to DMSO control; higher = less cytotoxic
Condition Description: RPMI 5 mM glucose + 10% FBS; 48 h; 0.000781 µM
Parameter: cell viability (%)

> print(dat)
                                    compound  quantitative.readout
 1    O=c1[nH]cnc2c1ncn2[C@H]1CC[C@@H](CO)O1                  78.5
 2       COc1cc(OC)c(NC(=O)Nc2cc(C)on2)cc1Cl                  83.5
 3  O=C(CCc1ccc(O)cc1)c1c(O)cc(O)cc1O[C@@H]1O[C@H](CO)[C@@H](O)[C@H](O)[C@H]1O                  82.5
 4  CC(C)(C)NC(=O)[C@@H]1CN(Cc2cccnc2)CCN1C[C@@H](O)C[C@@H](Cc1ccccc1)C(=O)N[C@H]1c2ccccc2C[C@H]1O.O=S(=O)(O)O                   112
 5  O=[N+]([O-])c1cnc(Sc2nnc(O)n2-c2ccc3c(c2)OCCO3)s1                  81.7
 6  N[C@@H](CC(=O)N1CCn2c(nnc2C(F)(F)F)C1)Cc1cc(F)c(F)cc1F                  83.3
 7  CCOC1=CC(=CC=C1C/2=N/[C@@](C)(C3=CC=C(Cl)C=C3)[C@](C)(N2C(=O)N4CCN(CC4)CC(=O)N5CCOCC5)C6=CC=C(Cl)C=C6)C(C)(C)C                  93.3
 8  O=C1NC(O)CCN1[C@@H]1O[C@H](CO)[C@@H](O)[C@H]1O (stereo partly drawn)                   121
 9   OCCCNc1cc(-c2ccnc(Nc3cccc(Cl)c3)n2)ccn1                  92.2
10  C[S+]([O-])c1ccc(-c2nc(-c3ccc(F)cc3)c(-c3ccncc3)[nH]2)cc1 (stereo not drawn)                    80
11       CCN(C)C(=O)Oc1cccc([C@H](C)N(C)C)c1                  95.9
12  NC(=O)Nc1cc(-c2ccc(CN3CCOCC3)cc2)sc1C(N)=O                   100
13  COc1ccc(Nc2cc(-c3cnc(N)nc3)nc(N3CCOCC3)n2)cn1                  82.6
